Measured melting point, listed per entry for reference.

{"columns": ["COMPOUND", "melting point"],
 "data": [
  ["O=C1OC(CO)C(O)C(O)C1O (stereo not drawn)", "151 to 155 °C"],
  ["Nc1c(C(=O)O)sc2ncccc12", "202 to 204 °C"],
  ["O=c1[nH]cc(Cl)cc1[N+](=O)[O-]", "234 to 236 °C"]
]}

###

Values of melting point greater than or equal to 200 °C map to Condition met; values below map to Condition not met.

{"columns": ["MOLECULE", "CLASS_LABEL"],
 "data": [
  ["N#CCCP(CCC#N)c1ccccc1", "Condition not met"],
  ["O=Cc1cc(Cl)cc(Cl)c1O", "Condition not met"],
  ["CCOC(=O)C(CCC#N)(CCC#N)C(=O)OCC", "Condition not met"],
  ["Cc1ccc(Nc2ccc(Nc3ccc(C)cc3)c3c2C(=O)c2ccccc2C3=O)cc1", "Condition met"],
  ["CN1CCN(C2=C(Cl)C(=O)c3ccccc3C2=O)CC1", "Condition not met"],
  ["CCCCCCCCCCCCN1CCCCCC1=O", "Condition not met"],
  ["CC(=C(CCOC(=O)c1ccccc1)SSC(CCOC(=O)c1ccccc1)=C(C)N(C=O)Cc1cnc(C)nc1N)N(C=O)Cc1cnc(C)nc1N", "Condition not met"],
  ["CC(C)COC(N)=O", "Condition not met"],
  ["Cn1ccc(=O)[nH]c1=O", "Condition met"],
  ["CCOC(=O)c1sc(N)c(C(=O)OCC)c1C", "Condition not met"],
  ["O=[N+]([O-])c1ccccc1N1CSc2nnc(-c3ccccc3)n2C1", "Condition met"],
  ["CC1(C)OC(c2ccco2)CN1C(=O)C(Cl)Cl (configuration not stated)", "Condition not met"],
  ["CC(=O)NC(=O)NC(C)=O", "Condition not met"],
  ["CCOC(=O)c1cc2c(=O)oc3ccccc3c2nc1C", "Condition not met"],
  ["O=C(O)CSc1cccc2cccc(Cl)c12", "Condition not met"],
  ["Cc1cc(Cl)cc([N+](=O)[O-])c1", "Condition not met"],
  ["CC1(C)C(C=Cc2cc(Br)cc([N+](=O)[O-])c2[O-])=[N+](Cc2ccccc2)c2ccccc21", "Condition met"],
  ["CCOC(=O)C(C#N)=NNc1ccc(C(=O)O)cc1", "Condition met"],
  ["Clc1cccc(-c2cccc(Cl)c2)c1", "Condition not met"]
]}
